system: CFTR−/− mice; test: Fatty acid levels (GC/MS) in pancreas and lung cells of CFTR−/− mice fed n-3 fatty acids; assay type: in vivo, mouse; settings: CFTR-/- mice, 40 mg/day for one week (fish oil: dose equivalent to 40 mg DHA, 60 mg EPA, 15 mg LNA); mean ± S.D.
Quantity Kind: AA level in pancreas
In your response, put the unit directly after the numeric value.

Below are worked cases with known answers.
>>> df
                                   compound             result
0  CC/C=C\C/C=C\C/C=C\C/C=C\C/C=C\CCCC(=O)O [EPA, Eicosapentaenoic acid, reference compound]  5.1 ± 0.3 nmol/mg
1  CC/C=C\C/C=C\C/C=C\CCCCCCCC(=O)O [LNA, α-linolenic acid, reference compound]  5.5 ± 0.8 nmol/mg
2  CC/C=C\C/C=C\C/C=C\C/C=C\C/C=C\C/C=C\CCC(=O)O  4.9 ± 1.8 nmol/mg

Continue with the compound presented below.
Recorded result, "CC/C=C\C/C=C\C/C=C\C/C=C\C/C=C\CCCCCC(=O)O" , AA level in pancreas: 5.1 ± 0.6 nmol/mg
